Some compounds, each annotated with its measured MIC.
System: Klebsiella pneumoniae
Assay: Antibacterial activity against Klebsiella pneumoniae assessed as reduction in bacterial growth measured after 24 hrs by two-fold serial dilution method
Type: functional
A number alone suffices; assume µg/mL.

Below are worked cases with known answers.
q: # get_value(readout='MIC', item= NC[C@H]1O[C@H](O[C@H]2[C@H](O)[C@@H](O[C@H]3O[C@H](CO)[C@@H](O)[C@H](N)[C@H]3O)[C@H](N)C[C@@H]2N)[C@H](N)[C@@H](O)[C@@H]1O [BEKANAMYCIN] )
a: 3.13

q: Look up MIC for this compound: `CCOC(=O)c1cccnc1NC(=O)c1ccc2c(c1)OCCCO2`
a: 25

q: What value of MIC has been recorded for this entry: `O=C(Nc1ccc2ccccc2n1)c1ccc2c(c1)OCCCO2`
a: 50

q: So what does the record say about MIC for `COC(=O)c1c[nH]c2cc(NC(=O)c3ccc4c(c3)OCCCO4)ccc12` ?
a: 1.56

q: Reported MIC for `O=C(Nc1cccc2ncccc12)c1ccc2c(c1)OCCCO2` : what is it?
a: 25

q: # lookup: MIC of `O=C(c1ccc2c(c1)OCCCO2)N1CCCCC1`
a: 25

Here is another compound to look at.
q: Param item = `O=C(c1ccc2c(c1)OCCCO2)N1CCOCC1` ; retrieve measured MIC.
a: 12.5
